// values below are reported inhibition at 1 µM
- system.name: human FAK (FAKcd409) (Homo sapiens, UniProt Q05397, P410T)
- Construct: comprises residues methionine 409 to glutamate 689; made in house; host or cells: baculovirus vector expression system (insect cells)
- Sequence (Q05397 409-689 P410T): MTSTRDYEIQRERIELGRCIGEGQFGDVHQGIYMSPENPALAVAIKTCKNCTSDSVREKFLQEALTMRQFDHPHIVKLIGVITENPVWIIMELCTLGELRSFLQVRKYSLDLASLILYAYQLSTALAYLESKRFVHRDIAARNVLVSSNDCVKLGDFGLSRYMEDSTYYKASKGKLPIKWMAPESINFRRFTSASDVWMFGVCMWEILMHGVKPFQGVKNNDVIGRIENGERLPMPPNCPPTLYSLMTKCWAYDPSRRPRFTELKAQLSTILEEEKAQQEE
- test.summary: FAK fluorescence polarization assay
- Type: biochemical
- assay.setup: Table 5; 1 µM; read-out: % Inhibition @ 1 µM FAK
Quick note: number first, unit second.

Known results for compounds:
* O=C(NNc1ccccn1)c1ccccc1Sc1ccc2c(/C=C/c3ccccn3)n[nH]c2c1 [Reference Example 35(n)] | 1%
* CCn1nc(C)cc1C(=O)Nc1cccc(C(=O)c2ccc3c(/C=C/c4ccccn4)n[nH]c3c2)c1 [Reference Example 41(a)] | 5%
* CCCn1nc(C)cc1C(=O)Nc1cccc(C(=O)c2ccc3c(/C=C/c4ccccn4)n[nH]c3c2)c1 [Reference Example 41(r)] | 5%

// below: inhibition at 1 µM requested for another compound
// query inhibition at 1 µM value for entry C#CCNC(=O)c1ccccc1Sc1ccc2c(/C=C/c3ccccn3)n[nH]c2c1 [Reference Example 35(cc)]
7%
